Item-by-item account of PKA IC50
# SYSTEM: protein kinase A, catalytic subunit
# TEST_NAME: cell-based or functional assay
Where no end group is shown, it is not given here. Side-chain parts run from the residue outwards. [ ]: non-standard residue; d: D form. The star is where a group is joined. SO2‑IQ = 5-aminoethylsulfoneamide isoquinoline, O=S(=O)(NCCN*)c1cccc2cnccc12; S‑IQ = 5-mercaptoaminopropyl isoquinoline; Nle = CCCC[C@H](N)C(=O)O; Dab = NCC[C@H](N)C(=O)O; Ava = NCCCCC(=O)O; βAla = NCCC(=O)O
REPORTED_PROPERTY: PKA IC50 (nM)

>>> print(df.to_string())
                                     binder  readout_value
0           RPRTE([βAla-S‑IQ])SF [PTR 6102]            100
1                RPRTE(SO2‑IQ)SF [PTR 6016]            100
2          RPRTE([Ava-SO2‑IQ])SF [PTR 6090]            600
3         RPRTE([βAla-SO2‑IQ])SF [PTR 6082]            200
4                  RPRTE(S‑IQ)SF [PTR 6104]            100
5  RPR[Nle]E([βAla-SO2‑IQ])[Dab]F [PTR 6140]            195
6  RPR[Nle]E([βAla-SO2‑IQ])S[Nle] [PTR 6096]            200
